- Experimental Details: protein stability index of a GFP-peptide fusion (yeast GPS) (PSI 1-4); higher = more stable; sorted into four equal gates, so the index is relative within each strain
- Experimental Context: pdr5∆
Quantity Name: protein stability index
Just the number, please, no unit attached.

# count of solved cases: 8
[[record]]
macromolecule_sequence = "KELDQELIIDPLFKKAL [BRN1]"
quantity_name = "protein stability index"
measurement = 3.07

[[record]]
macromolecule_sequence = "NDAMAGGFTAYGGADYG [RPO21]"
quantity_name = "protein stability index"
measurement = 1.91

[[record]]
macromolecule_sequence = "PLPICHANSVVALTGLL [YML031W/NDC1]"
quantity_name = "protein stability index"
measurement = 1.73

[[record]]
macromolecule_sequence = "QLNEERSRYRREIDALK [YIL149C/MLP2]"
quantity_name = "protein stability index"
measurement = 3.25

[[record]]
macromolecule_sequence = "SSTYYNLDYLFELIELV [NUT1]"
quantity_name = "protein stability index"
measurement = 2.62

[[record]]
macromolecule_sequence = "ESFKGLQPFWFRVNNAS [ECM29]"
quantity_name = "protein stability index"
measurement = 1.92

[[record]]
macromolecule_sequence = "ENFLKEVFQLRIFVKEI [GAL11]"
quantity_name = "protein stability index"
measurement = 1.69

[[record]]
macromolecule_sequence = "ESPNYCNALIHIKFSAG [SRB4]"
quantity_name = "protein stability index"
measurement = 1.83


Request: Look up protein stability index for this sequence: KDNAKISNNLALVFAAL [SRP68]
Response: 1.86

Request: Look up protein stability index for this sequence: KVGYTLPSHIISTSDVT [RPL4A]
Response: 2.69
